Source of measurements: ChEMBL document CHEMBL1122820

System: Erythroleukemia cell line
test-description: Percent benzidine-positive cell differentiation in friend erythroleukemia cells
Type: functional, Mus musculus
assay-endpoint: Differentiation

[[record]]
mol_smiles = "Nc1ncnc2c1nc(Br)n2[C@@H]1O[C@H](CO)[C@@H](O)[C@H]1O"
tested_target = "Erythroleukemia cell line"
result = "1%"

[[record]]
mol_smiles = "Nc1nc2c(O)ncnc2n1[C@@H]1O[C@H](CO)[C@@H](O)[C@@H]1O"
tested_target = "Erythroleukemia cell line"
result = "6%"

[[record]]
mol_smiles = "[N-]=[N+]=N[C@H]1[C@H](O)[C@@H](CO)O[C@H]1n1cnc2c(O)ncnc21"
tested_target = "Erythroleukemia cell line"
result = "40%"

[[record]]
mol_smiles = "OC[C@H]1O[C@@H](n2c(Br)nc3c(O)ncnc32)[C@H](O)[C@@H]1O"
tested_target = "Erythroleukemia cell line"
result = "1%"

[[record]]
mol_smiles = "Nc1ncnc2c1nc(Br)n2[C@@H]1O[C@H](CO)[C@@H](O)[C@@H]1O"
tested_target = "Erythroleukemia cell line"
result = "1%"

[[record]]
mol_smiles = "Nc1ncnc2c1ncn2[C@@H]1O[C@H](CO)[C@@H](O)[C@H]1O"
tested_target = "Erythroleukemia cell line"
result = "3%"

[[record]]
mol_smiles = "OC[C@H]1O[C@@H](n2cnc3c(O)ncnc32)[C@@H](O)[C@@H]1O"
tested_target = "Erythroleukemia cell line"
result = "82%"

[[record]]
mol_smiles = "OC[C@H]1O[C@@H](n2cnc3c(S)ncnc32)[C@H](O)[C@@H]1O"
tested_target = "Erythroleukemia cell line"
result = "51%"

[[record]]
mol_smiles = "OC[C@H]1O[C@@H](n2cnc3c(S)ncnc32)[C@@H](O)[C@@H]1O"
tested_target = "Erythroleukemia cell line"
result = "56%"


----------
Tested on: Erythroleukemia cell line
test-description: Optimum concentration for the extent of differentiation of friend erythroleukemia cells was evaluated.(deoxy-coformycin added at 25 uM)
Format: functional, Mus musculus
assay-endpoint: Optimal concentration (mM)

[[record]]
mol_smiles = "Nc1ncnc2c1ncn2[C@@H]1O[C@H](CO)[C@@H](O)[C@H]1O"
result = 0.04

[[record]]
mol_smiles = "OC[C@H]1O[C@@H](n2cnc3c(NO)ncnc32)[C@@H](O)[C@@H]1O"
result = 0.04

[[record]]
mol_smiles = "Nc1ncnc2c1nc(Br)n2[C@@H]1O[C@H](CO)[C@@H](O)[C@@H]1O"
result = 0.8

[[record]]
mol_smiles = "Nc1ncnc2c1nc(Br)n2[C@@H]1O[C@H](CO)[C@@H](O)[C@H]1O"
result = 1

[[record]]
mol_smiles = "Nc1ncnc2c1ncn2[C@@H]1O[C@H](CO)[C@@H](O)[C@@H]1O"
result = 0.002

